- measured target: GSK-3α/β
- assay notes: GSK-3α/β kinase assay
- Format: biochemical, porcine
- protocol conditions: read-out: Inhibition of GSK3beta, IC50
observed property: IC50 (µM)

[I] CC(C)n1cnc2c(NCc3ccc(-c4ccccn4)cc3)cc(NC(CO)[C@@H](C)O)nc21 (stereo in doubt)
[II] CC[C@@H](N)COc1cc(NCc2ccc(-c3ccccc3)cc2)c2ncn(C(C)C)c2n1
Request: Between the entries labelled I and II , which has a larger IC50 value on record? Respond using the label that marks the chosen record.
Response: I

* * *

- measured target: CDK2/cyclin E (Homo sapiens, UniProt P24941)
- assay notes: CDK2/cyclin E kinase assay
- Assay type: biochemical
- protocol conditions: Table 5
pIC50: −log10 of the molar value.
observed property: pIC50

>>> test_result("CC[C@H](CO)Nc1cc(NCc2ccc(-c3ccccn3)cc2)c2ncn(C(C)C)c2n1 [(R)-perharidine C]")
6.60

[1] CC[C@@H](CO)Nc1cc(NCc2ccc(-c3ccccn3)cc2)c2ncn(C(C)C)c2n1 [(S)-perharidine D]
[2] CC[C@H](CO)Nc1cc(NCc2ccccc2)c2ncn(C(C)C)c2n1 [(R)-perharidine A]
[3] CC[C@@H](CO)Nc1cc(NCc2ccccc2)c2ncn(C(C)C)c2n1 [(S)-perharidine B]
Request: List the 3 entries from lowest pIC50 to highest pIC50 value. List labels; respect the requested ordering.
Response: 3, 2, 1
